B1: KRT18 (parent)
chain: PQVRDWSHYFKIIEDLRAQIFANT

Variants of: B1
Assay: protein stability index of a GFP-peptide fusion (GPS, HEK-293T) (PSI 1-6); higher = more stable;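 note: lentivirally expressed fusions sorted by FACS into six bins by GFP to DsRed ratio, PSI derived from sequencing read proportions per bin multiplied by bin number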
Conditions: c terminus: a fixed tail appended
protein stability index values for the variants below.

MACROMOLECULE SEQUENCE | protein stability index
PAVRDWSHYFKIIEDLRAQIFANT [Q2A] | 2.59
PQVRDWSHYFKIIEDLSAQIFANT [R17S] | 2.02
PQVRDWAHYFKIIEDLRAQIFANT [S7A] | 2.53
PQVRDWVHYFKIIEDLRAQIFANT [S7V] | 2.53
PQVRDWSHYFKIIEDLREQIFANT [A18E] | 2.7
PQVRDWSHYFKIIEDLRMQIFANT [A18M] | 1.81
PQVRDWSHYFKIIEDLRNQIFANT [A18N] | 2.8
PQVRSWSHYFKIIEDLRAQIFANT [D5S] | 2.5
PQVRDWSHYFKIIEDLRQQIFANT [A18Q] | 2.02
PQVRDWSHLFKIIEDLRAQIFANT [Y9L] | 2.17
PQVTDWSHYFKIIEDLRAQIFANT [R4T] | 2.13
PQVRDWSHYFKIIEDLRAQIFANL [T24L] | 2.31
PQVRDWSHYFKIIEDLRKQIFANT [A18K] | 2.68
PQVRVWSHYFKIIEDLRAQIFANT [D5V] | 2.56
PQVRDWSHPFKIIEDLRAQIFANT [Y9P] | 2.36
PQVRDWSHYWKIIEDLRAQIFANT [F10W] | 2.7
PQVRDWSHYFKIIGDLRAQIFANT [E14G] | 2
PQVRDWSHWFKIIEDLRAQIFANT [Y9W] | 2.5
PQVRDWSHYFKIIEDLAAQIFANT [R17A] | 2.14
PQVRDWSHYFKIMEDLRAQIFANT [I13M] | 1.62
PQVRDWSHYFKIIEDLRWQIFANT [A18W] | 2.34
PQVRDWSHMFKIIEDLRAQIFANT [Y9M] | 1.89
